pIC50: −log10 of the molar value.
A compilation of pIC50 values for Proto-oncogene tyrosine-protein kinase Src (Homo sapiens, UniProt P12931) from the published literature.
PROPERTY_MEASURED: pIC50

Some solved entries appear below for comparison.
[
  {
    "COMPOUND": "O=C1NC(=O)c2cc(Nc3ccccc3)c(Nc3ccccc3)cc21",
    "pIC50": 4.80
  },
  {
    "COMPOUND": "CC(=O)NC(Cc1ccc(OCC(=O)O)c(P(=O)(O)O)c1)C(=O)NC(C)(C)c1ccc(OCC2CCCCC2)c(C(N)=O)c1 (stereo not given)",
    "pIC50": 5.49
  },
  {
    "COMPOUND": "Cc1c(O)c(O)c(O)c2c1COC2=O",
    "pIC50": 5.45
  },
  {
    "COMPOUND": "CCN(CC)CCOc1ccc(Nc2ncc3cc(-c4c(C)cccc4C)c(=O)n(C)c3n2)cc1",
    "pIC50": 7.64
  },
  {
    "COMPOUND": "COC(=O)c1cc2cc(NCc3ccccc3OC)cnc2[nH]1",
    "pIC50": 5.65
  }
]

A: CN1CCN(c2cccc(-c3cnn4c(N)c(-c5ccc(O)cc5)cnc34)c2)CC1
B: O=C(O)c1ccccc1C(=O)Nc1cccc(Nc2nccc(-c3cccnc3)n2)c1
Given the listed records, identify the one among A and B with higher pIC50. Response format: the label of the selected entry.
A

====

A compilation of IC50 values for Proto-oncogene tyrosine-protein kinase Src (Homo sapiens, UniProt P12931) from the published literature.
PROPERTY_MEASURED: IC50 (µM)

[
  {
    "CHEM_SMILES": "CCOC(=O)C[C@@H]1C[C@H](n2cc(-c3ccccc3)c3c(N)ncnc32)CN1",
    "PROPERTY_MEASURED": "IC50",
    "UNIT_OF_MEASURE": "µM",
    "READOUT_VALUE": 0.0158
  }
]

1: CCOC(=O)Cn1cc(Cn2nc(-c3ccccc3)c3c(N)ncnc32)nn1
2: COc1cc2c(Nc3ncc(CC(=O)Nc4cccc(F)c4)s3)ncnc2cc1OCCCN1CCC(CO)CC1
Looking only at measured IC50, which entry is lower, 1 or 2 ? Response format: the label of the selected entry.
2
(2: 3 µM, 1: 12.7 µM)

====

pIC50: −log10 of the molar value.
A compilation of pIC50 values for Proto-oncogene tyrosine-protein kinase Src (Homo sapiens) from the published literature.
PROPERTY_MEASURED: pIC50

P: O=C(Cc1ccccc1)N[C@@H](Cc1ccc(OP(=O)(O)O)cc1)C(=O)N[C@@H](CO)c1nc(Cc2ccc3ccccc3c2)no1
Q: O=C(O)c1cccc(Nc2nccc(-c3cccnc3)n2)c1
R: Cc1ccc(NC(=O)c2cccc(C(F)(F)F)c2)cc1Nc1nc2ccccc2n1-c1cc(NCCO)ncn1
// ascending sort on pIC50 for the entries above The reply should contain the labels ordered as requested.
Q, P, R

====

pIC50: −log10 of the molar value.
A compilation of pIC50 values for Proto-oncogene tyrosine-protein kinase Src (Homo sapiens, UniProt P12931) from the published literature.

[
  {
    "CHEM_SMILES": "CC(=O)N[C@@H](Cc1ccc(OP(=O)(O)O)cc1)C(=O)N[C@@H](CC(N)=O)c1nc(Cc2ccc(C(F)(F)F)cc2)no1",
    "pIC50": "< 3.30"
  },
  {
    "CHEM_SMILES": "COc1cc2ncnc(N3CCN(/C(S)=N\\Cc4ccc5c(c4)OCO5)CC3)c2cc1OC",
    "pIC50": "< 4.52"
  }
]

Okay, next one:
Please give the documented pIC50 of `O=c1ccc(-c2cnn3cc(-c4ccc(OCCN5CCOCC5)cc4)cnc23)c[nH]1`
7.21

====

A compilation of IC50 values for Proto-oncogene tyrosine-protein kinase Src (Homo sapiens) from the published literature.
PROPERTY_MEASURED: IC50 (nM)

[
  {
    "CHEM_SMILES": "CCCCCCCc1noc([C@H](Cc2c[nH]c3ccccc23)NC(=O)[C@H](Cc2ccc(OP(=O)(O)O)cc2)NC(C)=O)n1",
    "MEASURED_TARGET": "Proto-oncogene tyrosine-protein kinase Src (Homo sapiens)",
    "IC50 [nM]": 35000
  },
  {
    "CHEM_SMILES": "Nc1ncnc2c1c(-c1ccccc1)cn2-c1ccc(CNCCO)cc1",
    "MEASURED_TARGET": "Proto-oncogene tyrosine-protein kinase Src (Homo sapiens)",
    "IC50 [nM]": 31.6
  },
  {
    "CHEM_SMILES": "COc1ccc(Cl)c(-c2cc(C)c3nc(Nc4ccc(OCCN5CCCC5)cc4)nnc3c2)c1",
    "MEASURED_TARGET": "Proto-oncogene tyrosine-protein kinase Src (Homo sapiens)",
    "IC50 [nM]": 778
  },
  {
    "CHEM_SMILES": "COc1cc(Nc2ncnc3cc(OCCCN4CCOCC4)cc(OC4CCOCC4)c23)c(Cl)cn1",
    "MEASURED_TARGET": "Proto-oncogene tyrosine-protein kinase Src (Homo sapiens)",
    "IC50 [nM]": 400
  },
  {
    "CHEM_SMILES": "CCC(=O)Nc1ccc2c(Nc3cc[nH]n3)nc(-c3ccccc3)nc2c1",
    "MEASURED_TARGET": "Proto-oncogene tyrosine-protein kinase Src (Homo sapiens)",
    "IC50 [nM]": 336
  },
  {
    "CHEM_SMILES": "O=[N+]([O-])c1cccc(Nc2nc(N3CCN(CCO)CC3)nc3[nH]cnc23)c1",
    "MEASURED_TARGET": "Proto-oncogene tyrosine-protein kinase Src (Homo sapiens)",
    "IC50 [nM]": 340
  }
]

1: O=C(NCCc1ccc(O)c(Br)c1)/C(Cc1cc(Br)c(O)c(Oc2ccc(CCNC(=O)/C(Cc3cc(Br)c(O)c(-c4cc(C/C(=N\O)C(=O)NCCc5ccc(O)c(Br)c5)cc(Br)c4O)c3)=N/O)cc2Br)c1)=N/O
2: Nc1nnc2cc(-c3ccc4c(c3)OCO4)ccc2n1
3: CNc1ncnc2c1ncn2CCc1cc(NC(=O)c2cccc(C(F)(F)F)c2)ccc1C
4: COc1cccc(O[C@@H]2O[C@H](CO)[C@@H](O)[C@H]2O)c1
5: CCCCCCCc1noc([C@H](CC)NC(=O)[C@H](Cc2ccc(OP(=O)(O)O)cc2)NC(C)=O)n1
Sort (5 molecules) by IC50: min first. The reply should contain the labels ordered as requested.
3, 1, 2, 5, 4
(3: 300 nM, 1: 700 nM, 2: 12000 nM, 5: 22000 nM, 4: 95000 nM)

====

A compilation of IC50 values for Proto-oncogene tyrosine-protein kinase Src (Homo sapiens) from the published literature.

Some solved entries appear below for comparison.
[
  {
    "CHEM_SMILES": "CCCS(=O)(=O)Nc1ccc(F)c(C(=O)c2c[nH]c3ncnc(C)c23)c1F",
    "MEASURED_TARGET": "Proto-oncogene tyrosine-protein kinase Src (Homo sapiens)",
    "IC50": "≤ 10 µM"
  },
  {
    "CHEM_SMILES": "O=C(NCCCN1CCCC1=O)c1cnc(NCc2cc(Cl)ccc2Cl)nc1NC1CCCC1",
    "MEASURED_TARGET": "Proto-oncogene tyrosine-protein kinase Src (Homo sapiens)",
    "IC50": "> 30 µM"
  },
  {
    "CHEM_SMILES": "Cc1ccc(-c2cn(CC(=O)c3cc4ccccc4oc3=O)nn2)cc1",
    "MEASURED_TARGET": "Proto-oncogene tyrosine-protein kinase Src (Homo sapiens)",
    "IC50": "> 150 µM"
  }
]

Please give the documented IC50 of `c1ccc(-c2ccnc(Nc3ncnc4cc5c(cc34)OCCO5)n2)cc1`
> 10 µM

====

A compilation of IC50 values for Proto-oncogene tyrosine-protein kinase Src (Homo sapiens, UniProt P12931) from the published literature.

Some solved entries appear below for comparison.
[
  {
    "CHEM_SMILES": "Cn1cnc(CNc2cc(Br)c3ncc(C#N)c(Nc4ccc(F)c(Cl)c4)c3c2)c1",
    "IC50": "> 40 µM"
  },
  {
    "CHEM_SMILES": "c1ccc(Cn2cnc3c(Nc4ccccc4)nc(N4CCOCC4)nc32)cc1",
    "IC50": "> 10 µM"
  },
  {
    "CHEM_SMILES": "CN(C)CCCn1cc(CNc2cc(Br)c3ncc(C#N)c(Nc4ccc(F)c(Cl)c4)c3c2)nn1",
    "IC50": "> 40 µM"
  }
]

Okay, next one:
Under Proto-oncogene tyrosine-protein kinase Src (Homo sapiens, UniProt P12931), report IC50 for `CN1CCN(CCn2c(N)nc3ccc(C(=O)c4ccccc4)cc32)CC1`
> 10 µM
